Reported Solenopsis invicta Mortality (%) 100 ppm 72 h is given for each of the following compounds.
System: Solenopsis invicta
experimental-details: whole plant or invertebrate
Format: in vivo
applied-conditions: 100 ppm; 72 h; water test tube poison-feeding
assay-endpoint: Solenopsis invicta Mortality (%) 100 ppm 72 h

[
  {
    "compound": "N#Cc1nn2c(c1[S+]([O-])C(F)(F)F)NC(C#N)(C#N)c1cc(C(F)(F)F)cnc1-2 (stereo not shown)",
    "number": 89
  },
  {
    "compound": "CCOC(=O)CC1(C(=O)OCC)Nc2c([S+]([O-])C(F)(F)F)c(C#N)nn2-c2ncc(C(F)(F)F)cc21 (stereo not shown)",
    "number": 100
  },
  {
    "compound": "COC(=O)CC1Nc2c([S+]([O-])C(F)(F)F)c(C#N)nn2-c2ncc(C(F)(F)F)cc21 (stereo not shown)",
    "number": 100
  },
  {
    "compound": "N#Cc1nn2c(c1[S+]([O-])C(F)(F)F)NC(CBr)(C(=O)C(F)(F)F)c1cc(C(F)(F)F)cnc1-2 (stereo not shown)",
    "number": 96
  },
  {
    "compound": "N#Cc1nn2c(c1[S+]([O-])C(F)(F)F)NC(Cc1ccccc1)(C(=O)C(F)(F)F)c1cc(C(F)(F)F)cnc1-2 (stereo not shown)",
    "number": 100
  },
  {
    "compound": "COC(=O)CC1(C(=O)OC)Nc2c(Cl)c(C#N)nn2-c2ncc(C(F)(F)F)cc21 (stereo not shown)",
    "number": 100
  },
  {
    "compound": "N#CCC1(C(F)(F)F)Nc2c([S+]([O-])C(F)(F)F)c(C#N)nn2-c2ncc(C(F)(F)F)cc21 (stereo not shown)",
    "number": 97
  },
  {
    "compound": "CC1(C)Nc2c([S+]([O-])C(F)(F)F)c(C#N)nn2-c2ncc(C(F)(F)F)cc21 (stereo not shown)",
    "number": 95
  },
  {
    "compound": "N#CCC1(C(=O)C(F)(F)F)Nc2c([S+]([O-])C(F)(F)F)c(C#N)nn2-c2ncc(C(F)(F)F)cc21 (stereo not shown)",
    "number": 97
  },
  {
    "compound": "COC(=O)C1Nc2c([S+]([O-])C(F)(F)F)c(C#N)nn2-c2ncc(C(F)(F)F)cc21 (stereo not shown)",
    "number": 99
  },
  {
    "compound": "N#Cc1nn2c(c1[S+]([O-])C(F)(F)F)NC(C(=O)C(F)(F)F)c1cc(C(F)(F)F)cnc1-2 (stereo not shown)",
    "number": 100
  },
  {
    "compound": "CC(=O)C1(CC(F)(F)F)Nc2c([S+]([O-])C(F)(F)F)c(C#N)nn2-c2ncc(C(F)(F)F)cc21 (stereo not shown)",
    "number": 91
  },
  {
    "compound": "N#Cc1nn2c(c1[S+]([O-])C(F)(F)F)NC(Cl)c1cc(C(F)(F)F)cnc1-2 (stereo not shown)",
    "number": 100
  },
  {
    "compound": "COC(=O)C1(CC#N)Nc2c([S+]([O-])C(F)(F)F)c(C#N)nn2-c2ncc(C(F)(F)F)cc21 (stereo not shown)",
    "number": 98
  },
  {
    "compound": "COC(=O)CC1(C(=O)C(F)(F)F)Nc2c([S+]([O-])C(F)(F)F)c(C#N)nn2-c2ncc(C(F)(F)F)cc21 (stereo not shown)",
    "number": 99
  },
  {
    "compound": "COC(=O)CC1(C(=O)OC)Nc2c([S+]([O-])C(F)(F)F)c(C#N)nn2-c2ncc(C(F)(F)F)cc21 (stereo not shown)",
    "number": 100
  },
  {
    "compound": "COC(=O)CC1(C#N)Nc2c([S+]([O-])C(F)(F)F)c(C#N)nn2-c2ncc(C(F)(F)F)cc21 (stereo not shown)",
    "number": 93
  },
  {
    "compound": "COC(=O)CC1(C(F)(F)F)Nc2c([S+]([O-])C(F)(F)F)c(C#N)nn2-c2ncc(C(F)(F)F)cc21 (stereo not shown)",
    "number": 99
  },
  {
    "compound": "CC(=O)C1(CC(=O)C(F)(F)F)Nc2c([S+]([O-])C(F)(F)F)c(C#N)nn2-c2ncc(C(F)(F)F)cc21 (stereo not shown)",
    "number": 99
  },
  {
    "compound": "CC=CC1Nc2c([S+]([O-])C(F)(F)F)c(C(F)(F)F)nn2-c2ncc(C(F)(F)F)cc21 (stereo not shown)",
    "number": 90
  },
  {
    "compound": "N#Cc1nn2c(c1[S+]([O-])C(F)(F)F)NC(Cl)(CBr)c1cc(C(F)(F)F)cnc1-2 (stereo not shown)",
    "number": 90
  },
  {
    "compound": "COC(=O)CC1Nc2c([S+]([O-])C(F)(F)F)c(C(F)(F)F)nn2-c2ncc(C(F)(F)F)cc21 (stereo not shown)",
    "number": 100
  },
  {
    "compound": "CC(=O)CC1(C(=O)C(F)(F)F)Nc2c([S+]([O-])C(F)(F)F)c(C#N)nn2-c2ncc(C(F)(F)F)cc21 (stereo not shown)",
    "number": 100
  },
  {
    "compound": "N#Cc1nn2c(c1[S+]([O-])C(F)(F)F)NC(Cl)(Cl)c1cc(C(F)(F)F)cnc1-2 (stereo not shown)",
    "number": 95
  },
  {
    "compound": "C[S+]([O-])c1nn2c(c1C#N)NC(F)(C(F)(F)F)c1ccccc1-2 (stereo not shown)",
    "number": 100
  },
  {
    "compound": "N#Cc1nn2c(c1[S+]([O-])C(F)(F)F)NC(C#N)c1cc(C(F)(F)F)cnc1-2 (stereo not shown)",
    "number": 91
  },
  {
    "compound": "N#Cc1nn2c(c1[S+]([O-])C(F)(F)F)NC(C#N)(CC(=O)C(F)(F)F)c1cc(C(F)(F)F)cnc1-2 (stereo not shown)",
    "number": 100
  },
  {
    "compound": "COC(=O)C1Nc2c([S+]([O-])C(F)(F)F)c(C(F)(F)F)nn2-c2ncc(C(F)(F)F)cc21 (stereo not shown)",
    "number": 97
  }
]

Provenance of the data: patent US11401271B2
